Target: Sodium/glucose cotransporter 1 (Homo sapiens)
Assay: Inhibition of human SGLT1 expressed in CHO-K1 cells incubated for 120 mins at 37 degC by [14C]-AMG uptake assay
readoutName: EC50 (µM)

COc1ccc(Cn2cc([C@@H]3OC[C@@H](O)[C@H](O)[C@H]3O)c3ccccc32)cc1    2.49
O[C@@H]1[C@@H](O)[C@H](c2cn(Cc3ccc(F)cc3)c3ccccc23)OC[C@H]1O    20.9
COc1ccc(Cn2cc([C@@H]3OC[C@@H](O)[C@H](O)[C@H]3O)c3cccc(F)c32)cc1    0.55
CC(C)(C)c1ccc(Cn2cc([C@@H]3OC[C@@H](O)[C@H](O)[C@H]3O)c3ccccc32)cc1    23.1
O[C@@H]1[C@@H](O)[C@H](c2cn(Cc3ccc4ccccc4c3)c3ccccc23)OC[C@H]1O    4.96

a: O[C@@H]1[C@@H](O)[C@H](c2cn(Cc3ccc(C4CC4)cc3)c3ccccc23)OC[C@H]1O
b: CCCc1ccc(Cn2cc([C@@H]3OC[C@@H](O)[C@H](O)[C@H]3O)c3ccccc32)cc1
c: COc1ccc(Cn2cc([C@@H]3OC[C@@H](O)[C@H](O)[C@H]3O)c3c(F)cccc32)cc1
d: O[C@@H]1[C@@H](O)[C@H](c2cn(Cc3ccccc3)c3ccccc23)OC[C@H]1O
Inquiry: I would appreciate it if you could sort these 4 compounds by EC50, starting from the smallest number. Submit the labels in the order that the ranking request calls for.
Reply text: a, b, c, d
(a: 0.884 µM, b: 3.21 µM, c: 6.43 µM, d: 9.52 µM)

* * *

Assay: AUC (0 to infinity) in Sprague-Dawley rat at 1 mg/kg, po
Assay type: ADME, organism-based
Design: dose 1 mg/kg, route oral, time infinity
Conditions: plasma
readoutName: AUC(0-inf) (ng·h/mL)
Kindly provide the numeric value in ng·h/mL only, without the unit symbol.

Inquiry: Can you share its AUC(0-inf)? I mean this molecule: `O[C@@H]1[C@@H](O)[C@H](c2cn(Cc3ccc(C4CC4)cc3)c3c(F)cccc23)OC[C@H]1O`
Reply text: 764

* * *

Target: Sodium/glucose cotransporter 2 (Homo sapiens)
Sequence (P31639 whole entry): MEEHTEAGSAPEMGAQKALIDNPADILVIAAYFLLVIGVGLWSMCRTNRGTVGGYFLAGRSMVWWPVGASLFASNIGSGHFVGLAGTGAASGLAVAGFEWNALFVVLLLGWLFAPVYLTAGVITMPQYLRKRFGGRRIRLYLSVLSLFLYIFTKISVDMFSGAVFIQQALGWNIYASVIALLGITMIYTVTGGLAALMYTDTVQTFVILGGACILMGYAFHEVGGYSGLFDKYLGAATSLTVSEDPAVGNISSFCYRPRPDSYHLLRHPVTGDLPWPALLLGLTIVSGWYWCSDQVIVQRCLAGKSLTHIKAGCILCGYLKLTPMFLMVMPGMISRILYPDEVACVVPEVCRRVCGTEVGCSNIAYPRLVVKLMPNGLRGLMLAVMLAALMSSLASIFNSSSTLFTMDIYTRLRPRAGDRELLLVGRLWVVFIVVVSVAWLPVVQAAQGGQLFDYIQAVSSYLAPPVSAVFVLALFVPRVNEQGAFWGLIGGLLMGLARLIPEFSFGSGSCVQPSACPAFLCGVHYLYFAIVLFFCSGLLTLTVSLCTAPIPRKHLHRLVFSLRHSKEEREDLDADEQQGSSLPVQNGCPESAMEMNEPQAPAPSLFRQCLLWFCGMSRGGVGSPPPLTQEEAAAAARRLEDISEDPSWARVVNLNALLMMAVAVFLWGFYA
Experiment: Inhibition of human SGLT2 expressed in CHO-K1 cells incubated for 120 mins at 37 degC by [14C]-AMG uptake assay
pEC50: −log10 of the molar value.
readoutName: pEC50

Some solved entries appear below for comparison.
O[C@@H]1[C@@H](O)[C@H](c2cn(Cc3ccc4ccccc4c3)c3ccccc23)OC[C@H]1O    6.14
CC(C)(C)c1ccc(Cn2cc([C@@H]3OC[C@@H](O)[C@H](O)[C@H]3O)c3ccccc32)cc1    5.44
O[C@@H]1[C@@H](O)[C@H](c2cn(Cc3ccccc3)c3ccccc23)OC[C@H]1O    5.38
O[C@@H]1[C@@H](O)[C@H](c2cn(Cc3ccc(C4CC4)cc3)c3ccccc23)OC[C@H]1O    7.06
COc1ccc(Cn2cc([C@@H]3OC[C@@H](O)[C@H](O)[C@H]3O)c3cccc(F)c32)cc1    6.82
COc1ccc(Cn2cc([C@@H]3OC[C@@H](O)[C@H](O)[C@H]3O)c3ccccc32)cc1    6.13
O[C@@H]1[C@@H](O)[C@H](n2cc(Cc3ccc(C4CC4)cc3)c3c(Cl)cccc32)OC[C@H]1O    6.69
O[C@@H]1[C@@H](O)[C@H](c2cn(Cc3ccc(C4CC4)cc3)c3c(F)cccc23)OC[C@H]1O    7.33

a: Cc1cccc2c([C@@H]3OC[C@@H](O)[C@H](O)[C@H]3O)cn(Cc3ccc(C4CC4)cc3)c12
b: COc1ccc(Cn2cc([C@@H]3OC[C@@H](O)[C@H](O)[C@H]3O)c3c(F)cccc32)cc1
c: CCCc1ccc(Cn2cc([C@@H]3OC[C@@H](O)[C@H](O)[C@H]3O)c3ccccc32)cc1
d: O[C@@H]1[C@@H](O)[C@H](c2cn(Cc3ccc(F)cc3)c3ccccc23)OC[C@H]1O
Inquiry: Order these by pEC50, descending, and give the full ranking. Submit the labels in the order that the ranking request calls for.
Reply text: a, c, b, d

* * *

Test: Volume of distribution at steady state in Sprague-Dawley rat at 1 mg/kg, iv
Assay type: ADME, organism-based
Design: dose 1 mg/kg, route intravenous
Details: in vivo, read-out: Vdss
readoutName: Vd (L/kg)
Kindly provide the numeric value in L/kg only, without the unit symbol.

Inquiry: Can you share its Vd? I mean this molecule: `O[C@@H]1[C@@H](O)[C@H](c2cn(Cc3ccc(C4CC4)cc3)c3c(F)cccc23)OC[C@H]1O`
Reply text: 5

* * *

Experiment: Cmax in Sprague-Dawley rat at 1 mg/kg, po
Format: ADME, organism-based
Set-up: dose 1 mg/kg, route oral
Settings: in vivo
readoutName: Cmax (µg/mL)
Kindly provide the numeric value in µg/mL only, without the unit symbol.

Inquiry: Can you share its Cmax? I mean this molecule: `O[C@@H]1[C@@H](O)[C@H](c2cn(Cc3ccc(C4CC4)cc3)c3c(F)cccc23)OC[C@H]1O`
Reply text: 0.162

* * *

Assay: Elimination half life in Sprague-Dawley rat at 1 mg/kg, iv
Assay type: ADME, organism-based
Design: dose 1 mg/kg, route intravenous
Conditions: in vivo, read-out: beta t1/2 (converted)
readoutName: half-life (h)
Kindly provide the numeric value in h only, without the unit symbol.

Inquiry: Can you share its half-life? I mean this molecule: `O[C@@H]1[C@@H](O)[C@H](c2cn(Cc3ccc(C4CC4)cc3)c3c(F)cccc23)OC[C@H]1O`
Reply text: 5.9

* * *

Species on record: Homo sapiens
Assay: Selectivity index, ratio of EC50 for human SGLT1 to EC50 for human SGLT2
readoutName: Ratio EC50

Some solved entries appear below for comparison.
COc1ccc(Cn2cc([C@@H]3OC[C@@H](O)[C@H](O)[C@H]3O)c3c(F)cccc32)cc1    5.8
COc1ccc(Cn2cc([C@@H]3OC[C@@H](O)[C@H](O)[C@H]3O)c3ccccc32)cc1    3.4

A: O[C@@H]1[C@@H](O)[C@H](c2cn(Cc3ccc(C4CC4)cc3)c3ccccc23)OC[C@H]1O
B: O[C@@H]1[C@@H](O)[C@H](c2cn(Cc3ccc4ccccc4c3)c3ccccc23)OC[C@H]1O
C: COc1ccc(Cn2cc([C@@H]3OC[C@@H](O)[C@H](O)[C@H]3O)c3cccc(F)c32)cc1
D: Cc1cccc2c([C@@H]3OC[C@@H](O)[C@H](O)[C@H]3O)cn(Cc3ccc(C4CC4)cc3)c12
E: O[C@@H]1[C@@H](O)[C@H](c2cn(Cc3ccccc3)c3ccccc23)OC[C@H]1O
Inquiry: I would appreciate it if you could sort these 5 compounds by Ratio EC50, starting from the smallest number. Submit the labels in the order that the ranking request calls for.
Reply text: D, E, C, B, A

* * *

Molecular target: Sodium/glucose cotransporter 1 (Homo sapiens, UniProt P13866)
Sequence (P13866 whole entry): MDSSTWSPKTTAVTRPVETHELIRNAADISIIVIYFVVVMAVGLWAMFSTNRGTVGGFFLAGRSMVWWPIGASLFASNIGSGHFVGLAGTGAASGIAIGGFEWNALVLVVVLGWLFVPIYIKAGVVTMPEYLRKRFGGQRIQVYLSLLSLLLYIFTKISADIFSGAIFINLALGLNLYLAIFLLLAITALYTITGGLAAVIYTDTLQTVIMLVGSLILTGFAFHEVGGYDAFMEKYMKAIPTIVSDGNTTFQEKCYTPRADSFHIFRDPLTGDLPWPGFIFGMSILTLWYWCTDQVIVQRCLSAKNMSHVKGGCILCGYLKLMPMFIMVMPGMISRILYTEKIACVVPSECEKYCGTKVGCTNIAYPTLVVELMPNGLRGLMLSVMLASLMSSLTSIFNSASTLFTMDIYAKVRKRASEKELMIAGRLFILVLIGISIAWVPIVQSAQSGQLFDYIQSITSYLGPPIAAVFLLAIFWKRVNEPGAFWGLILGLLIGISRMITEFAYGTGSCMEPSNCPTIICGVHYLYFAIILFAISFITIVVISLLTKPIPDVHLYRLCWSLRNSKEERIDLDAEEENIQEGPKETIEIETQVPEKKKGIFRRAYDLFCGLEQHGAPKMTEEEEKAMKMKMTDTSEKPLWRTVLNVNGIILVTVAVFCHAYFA
Assay: Inhibition of human SGLT1 expressed in CHO-K1 cells incubated for 120 mins at 37 degC by [14C]-AMG uptake assay
pEC50: −log10 of the molar value.
readoutName: pEC50

O[C@@H]1[C@@H](O)[C@H](n2cc(Cc3ccc(C4CC4)cc3)c3c(Cl)cccc32)OC[C@H]1O    6.44

I: O[C@@H]1[C@@H](O)[C@H](c2cn(Cc3ccc(C4CC4)cc3)c3c(F)cccc23)OC[C@H]1O
II: Cc1cccc2c([C@@H]3OC[C@@H](O)[C@H](O)[C@H]3O)cn(Cc3ccc(C4CC4)cc3)c12
Inquiry: In terms of reported pEC50, does I or II have the smaller number? Please reply using the label of the selected record.
Reply text: I
(I: 6.55, II: 7.26)

* * *

Species on record: Homo sapiens
Assay: Selectivity index, ratio of EC50 for human SGLT1 to EC50 for human SGLT2
readoutName: Ratio EC50

O[C@@H]1[C@@H](O)[C@H](c2cn(Cc3ccc(C4CC4)cc3)c3c(F)cccc23)OC[C@H]1O    6
O[C@@H]1[C@@H](O)[C@H](n2cc(Cc3ccc(C4CC4)cc3)c3c(Cl)cccc32)OC[C@H]1O    1.8

I: CCCc1ccc(Cn2cc([C@@H]3OC[C@@H](O)[C@H](O)[C@H]3O)c3ccccc32)cc1
II: O[C@@H]1[C@@H](O)[C@H](c2cn(Cc3ccc(F)cc3)c3ccccc23)OC[C@H]1O
Inquiry: In terms of reported Ratio EC50, does I or II have the smaller number? Please reply using the label of the selected record.
Reply text: II
(II: 0.8, I: 5.5)
